B1: tRNA (parent)
chain: GUUCCGUUGGCGUAAUGGUAACGCGUCUCCCUCCUAAGGAGAAGACUGCGGGUUCGAGUCCCGUACGGAACG

- Variants of: B1
- assay-name: yeast fitness relative to wild type (ratio to wild type); higher = fitter; tRNA-Arg(CCU), competitive growth, 37 C, YPD
This sample holds only a part of the variants without activity.
property-measured: yeast fitness
Reply briefly: the number, and no unit.

Look over these answered cases.
sequence-record	yeast fitness
GUUCCGUUGGCGUAAUGGUAAGGCGUCUCCCUCUUAAGGAGAAGAAUGCGGGUUCGAGUCCUGUACGGAACG [C22G C34U C46A C62U]	0.611
GUUCCGUUGGCGUCAUGGUAACGCGUCUCCCUCCUAAGGUGAAGACUGCGGGUUCGAGUCCCGUACGGAACG [A14C A40U]	0.587

Query block: Quote yeast fitness reported for GUUUCGUUAGCGUAAUGGUAACGCGUCUCCCUCCUAAGGAGAAGACUGCGGGUUCGAGUCCCGUACAGAACG [C4U G9A G67A] please.
Result block: 0.598
